# assayed.system: T1, Human ADAM10 from R & D Systems (human, UniProt O14672 214-672)
# T1 sequence (looked up): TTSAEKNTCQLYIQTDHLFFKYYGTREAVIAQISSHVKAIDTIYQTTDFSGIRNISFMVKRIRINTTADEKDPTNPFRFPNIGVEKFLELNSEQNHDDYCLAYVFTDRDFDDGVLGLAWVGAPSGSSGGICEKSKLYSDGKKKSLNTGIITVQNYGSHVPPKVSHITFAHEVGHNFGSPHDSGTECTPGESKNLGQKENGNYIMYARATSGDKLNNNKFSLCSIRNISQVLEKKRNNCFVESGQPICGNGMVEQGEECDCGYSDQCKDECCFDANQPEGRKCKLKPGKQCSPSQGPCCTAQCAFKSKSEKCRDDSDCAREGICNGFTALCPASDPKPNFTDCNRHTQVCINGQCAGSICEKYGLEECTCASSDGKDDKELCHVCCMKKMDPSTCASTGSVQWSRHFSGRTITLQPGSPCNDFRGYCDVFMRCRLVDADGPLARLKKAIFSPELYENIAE
# test.protocol: cell-based or functional assay
Labelling: IC50 (nM), inhibition of ADAM10 cleavage of the fluorescent substrate PEPDAB064 reported below 100 nM becomes condition met; at or above becomes condition not met.

Ask: Please indicate whether the reported IC50 (nM), inhibition of ADAM10 cleavage of the fluorescent substrate PEPDAB064 of C-term PEG-SEQ ID NO: 71 (R29K; R55K; C151S; E177A) (10 kDa maleimide PEG on a cysteine at the C-terminus ('C-term PEG')) NPLNKYIRHYEGLSYNVDSLHQKHQRAKKAVSHEDQFLRLDFHAHGRHFNLRMKKDTSLFSDEFKVETSNKVLDYDTSHIYTGHIYGEEGSFSHGSVIDGRFEGFIQTRGGTFYVEPAERYIKDRTLPFHSVIYHEDDINYPHKYGPQGGSADHSVFERMRKYQMTGVEEVTQIPQAEHAANGPELLRKGSGSC is strictly below 100 nM.
Reply: condition met

Ask: Please indicate whether the reported IC50 (nM), inhibition of ADAM10 cleavage of the fluorescent substrate PEPDAB064 of SEQ ID NO: 65 (R26A; R52A; C151S) (peptide) NPLNKYIRHYEGLSYNVDSLHQKHQAAKRAVSHEDQFLRLDFHAHGRHFNLAMKRDTSLFSDEFKVETSNKVLDYDTSHIYTGHIYGEEGSFSHGSVIDGRFEGFIQTRGGTFYVEPAERYIKDRTLPFHSVIYHEDDINYPHKYGPQGGSADHSVFERMRKYQMTGVEEVTQIPQAEHAANGPELLRK is strictly below 100 nM.
Reply: condition met

Ask: Please indicate whether the reported IC50 (nM), inhibition of ADAM10 cleavage of the fluorescent substrate PEPDAB064 of SEQ ID NO: 34 (R29A; C151S; E177A) (peptide) NPLNKYIRHYEGLSYNVDSLHQKHQRAKAAVSHEDQFLRLDFHAHGRHFNLRMKRDTSLFSDEFKVETSNKVLDYDTSHIYTGHIYGEEGSFSHGSVIDGRFEGFIQTRGGTFYVEPAERYIKDRTLPFHSVIYHEDDINYPHKYGPQGGSADHSVFERMRKYQMTGVEEVTQIPQAEHAANGPELLRK is strictly below 100 nM.
Reply: condition met

New cases:
Ask: Please indicate whether the reported IC50 (nM), inhibition of ADAM10 cleavage of the fluorescent substrate PEPDAB064 of SEQ ID NO: 5 (mut 1; K28A; K54A) (peptide) NPLNKYIRHYEGLSYNVDSLHQKHQRAARAVSHEDQFLRLDFHAHGRHFNLRMARDTSLFSDEFKVETSNKVLDYDTSHIYTGHIYGEEGSFSHGSVIDGRFEGFIQTRGGTFYVEPAERYIKDRTLPFHSVIYHEDDINYPHKYGPQGGCADHSVFERMRKYQMTGVEEVTQIPQEEHAANGPELLRK is strictly below 100 nM.
Reply: condition not met

Ask: Please indicate whether the reported IC50 (nM), inhibition of ADAM10 cleavage of the fluorescent substrate PEPDAB064 of SEQ ID NO: 9 (mut3; K28A; K54A; E88A; E177A) (peptide) NPLNKYIRHYEGLSYNVDSLHQKHQRAARAVSHEDQFLRLDFHAHGRHFNLRMARDTSLFSDEFKVETSNKVLDYDTSHIYTGHIYGAEGSFSHGSVIDGRFEGFIQTRGGTFYVEPAERYIKDRTLPFHSVIYHEDDINYPHKYGPQGGCADHSVFERMRKYQMTGVEEVTQIPQAEHAANGPELLRK is strictly below 100 nM.
Reply: condition not met

Ask: Please indicate whether the reported IC50 (nM), inhibition of ADAM10 cleavage of the fluorescent substrate PEPDAB064 of SEQ ID NO: 66 (SEQ ID NO: 1/SEQ ID NO: 2 hybrid; R26A; R55A; C151S; E177A) (peptide) NPLNKYIRHYEGLSYNVDSLHQKHQAAKRAVSHEDQFLLLDFHAHGRQFNLRMKADTSLFSDEFKVETSNKVPDYDTSHIYTGHIYGEEGSFSHGSVIDGRFEGFIKTRGGTFYIEPAERYIKDRILPFHSVIYHEDDINYPHKYGPQGGSADHSVFERMRKYQMTGVEEVTQIPQAEHAANGPELLRK is strictly below 100 nM.
Reply: condition not met
